- Test system: 233499-124-R-J3-PDC complex spheroid viability, % test/control
- procedure_summary: Anticancer human tumor 233499-124-R-J3-PDC patient-derived colon adenocarcinoma cell line growth inhibition
- test_conditions: second compound 1 µM; first compound 0.00949 µM; stronger effect = lower value
Rule for this label: class 1 means viability, T/C is less than 90%; class 0 means viability, T/C is at least 90%.

1) CCN(c1cc(-c2ccc(CN3CCOCC3)cc2)cc(C(=O)NCc2c(C)cc(C)[nH]c2=O)c1C)C1CCOCC1 + NC1CC1c1ccc(-c2cccc(O)c2)cc1
class 0
2) COc1cc(C2c3cc4c(cc3C(OC3OC5COC(C)OC5C(O)C3O)C3COC(=O)C23)OCO4)cc(OC)c1O (configuration not stated) + NC1CC1c1ccc(-c2cccc(O)c2)cc1
class 0

Inquiry: Is the reported viability, T/C for CCc1c2c(nc3ccc(O)cc13)-c1cc3c(c(=O)n1C2)COC(=O)[C@]3(O)CC + NC1CCC(NC2CC2c2ccccc2)CC1 strictly below 90%?
Reply text: class 0

Inquiry: Is the reported viability, T/C for Nc1ccccc1NC(=O)c1ccc(CNC(=O)OCc2cccnc2)cc1 + NC1CC1c1ccc(-c2cccc(O)c2)cc1 strictly below 90%?
Reply text: class 0

Inquiry: Is the reported viability, T/C for Nc1ncn(C2CC(O)C(CO)S2)c(=O)n1 (configuration not stated) + NC1CC1c1ccc(-c2cccc(O)c2)cc1 strictly below 90%?
Reply text: class 0

Inquiry: Is the reported viability, T/C for CCN(c1cc(-c2ccc(CN3CCOCC3)cc2)cc(C(=O)NCc2c(C)cc(C)[nH]c2=O)c1C)C1CCOCC1 + NC1CCC(NC2CC2c2ccccc2)CC1 strictly below 90%?
Reply text: class 1

---

- System: 233499-124-R-J3-PDC complex spheroid viability, % test/control
- procedure_summary: Anticancer human tumor 233499-124-R-J3-PDC cell line growth inhibition;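 note: spheroids exposed to agents for one week before readout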
- test_conditions: second compound 0.316 µM; first compound 0.003 µM; stronger effect = lower value
value_kind: viability, T/C (%)
Numbers only, in %.

Provide reported viability, T/C for each item, in the same order as listed.
1. Nc1ccn(C2OC(CO)C(O)C2(F)F)c(=O)n1 (stereo unspecified) + NC1CC1c1ccc(-c2cccc(O)c2)cc1
2. Nc1ncn(C2CC(O)C(CO)S2)c(=O)n1 (stereo unspecified) + NC1CCC(NC2CC2c2ccccc2)CC1
3. Nc1ccn(C2OC(CO)C(O)C2(F)F)c(=O)n1 (stereo unspecified) + NC1CCC(NC2CC2c2ccccc2)CC1
4. CCc1c2c(nc3ccc(O)cc13)-c1cc3c(c(=O)n1C2)COC(=O)[C@]3(O)CC + NC1CCC(NC2CC2c2ccccc2)CC1

Reply text:
1: 96.1; 2: 107; 3: 58.8; 4: 92.2

Provide reported viability, T/C for each item, in the same order as listed.
1. CCc1c2c(nc3ccc(O)cc13)-c1cc3c(c(=O)n1C2)COC(=O)[C@]3(O)CC + NC1CC1c1ccc(-c2cccc(O)c2)cc1
2. Nc1ncn(C2CC(O)C(CO)S2)c(=O)n1 (stereo unspecified) + NC1CC1c1ccc(-c2cccc(O)c2)cc1

Reply text:
112
96.7

---

- Tested on: 233499-124-R-J3-PDC complex spheroid viability, % test/control
- procedure_summary: Anticancer human tumor 233499-124-R-J3-PDC cell line growth inhibition;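 note: spheroids exposed to agents for one week before readout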
- test_conditions: second compound 1 µM; first compound 1 µM; stronger effect = lower value
Rule for this label: fulfilled means viability, T/C is less than 90%; not fulfilled means viability, T/C is at least 90%.

1) CC1(C)CCC(CN2CCN(c3ccc(C(=O)NS(=O)(=O)c4ccc(NCC5CCOCC5)c([N+](=O)[O-])c4)c(Oc4cnc5[nH]ccc5c4)c3)CC2)=C(c2ccc(Cl)cc2)C1 + NC1CCC(NC2CC2c2ccccc2)CC1
not fulfilled
2) O=C(c1cc(Cc2n[nH]c(=O)c3ccccc23)ccc1F)N1CCN(C(=O)C2CC2)CC1 + NC1CC1c1ccc(-c2cccc(O)c2)cc1
fulfilled
3) Nc1ncn(C2CC(O)C(CO)O2)c(=O)n1 (stereo unspecified) + NC1CCC(NC2CC2c2ccccc2)CC1
not fulfilled
4) CC(C)c1c(-c2ccccc2)nc2c(C#N)c[nH]n2c1=O + NC1CC1c1ccc(-c2cccc(O)c2)cc1
not fulfilled
5) CC1(C)CCC(CN2CCN(c3ccc(C(=O)NS(=O)(=O)c4ccc(NCC5CCOCC5)c([N+](=O)[O-])c4)c(Oc4cnc5[nH]ccc5c4)c3)CC2)=C(c2ccc(Cl)cc2)C1 + NC1CC1c1ccc(-c2cccc(O)c2)cc1
not fulfilled

Inquiry: Is the reported viability, T/C for CC(C)c1c(-c2ccccc2)nc2c(C#N)c[nH]n2c1=O + NC1CCC(NC2CC2c2ccccc2)CC1 strictly below 90%?
Reply text: not fulfilled

---

- Tested on: 233499-124-R-J3-PDC complex spheroid viability, % test/control
- procedure_summary: Anticancer human tumor 233499-124-R-J3-PDC cell line growth inhibition;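 note: spheroids exposed to agents for one week before readout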
- test_conditions: second compound 10 µM; first compound 0.949 µM; stronger effect = lower value
Kindly state viability, T/C for each of the entries shown.
One number for each entry, in %.

The examples below pair each entry with its known result.
1) COc1cc(C2c3cc4c(cc3C(OC3OC5COC(C)OC5C(O)C3O)C3COC(=O)C23)OCO4)cc(OC)c1O (stereo not drawn) + NC1CCC(NC2CC2c2ccccc2)CC1
63.7
2) Nc1ccccc1NC(=O)c1ccc(CNC(=O)OCc2cccnc2)cc1 + NC1CCC(NC2CC2c2ccccc2)CC1
11.5

viability, T/C reported for this compound NS(=O)(=O)OCC1CC(n2ccc3c(NC4CCc5ccccc54)ncnc32)CC1O (stereo not drawn) + NC1CC1c1ccc(-c2cccc(O)c2)cc1 : 5.35

---

- Test system: 233499-124-R-J3-PDC complex spheroid viability, % test/control
- procedure_summary: Anticancer human tumor 233499-124-R-J3-PDC cell line growth inhibition;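 note: spheroids exposed to agents for one week before readout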
- test_conditions: second compound 1 µM; first compound 1 µM; stronger effect = lower value
value_kind: viability, T/C (%)
Numbers only, in %.

The examples below pair each entry with its known result.
1. O=C(C=Cn1cnc(-c2cc(C(F)(F)F)cc(C(F)(F)F)c2)n1)NNc1cnccn1 + NC1CCC(NC2CC2c2ccccc2)CC1
12
2. CC1COCCN1c1cc(C2(S(C)(=N)=O)CC2)nc(-c2ccnc3[nH]ccc23)n1 (configuration not stated) + NC1CC1c1ccc(-c2cccc(O)c2)cc1
87.8
3. COc1ccc([C@@H](O)c2cc(-c3ncnc4cc(N5CCOCC5)ccc34)c(F)cc2Cl)nn1 + NC1CCC(NC2CC2c2ccccc2)CC1
74.1
4. COc1ccc([C@@H](O)c2cc(-c3ncnc4cc(N5CCOCC5)ccc34)c(F)cc2Cl)nn1 + NC1CC1c1ccc(-c2cccc(O)c2)cc1
62
5. O=C(C=Cn1cnc(-c2cc(C(F)(F)F)cc(C(F)(F)F)c2)n1)NNc1cnccn1 + NC1CC1c1ccc(-c2cccc(O)c2)cc1
46
6. CC1COCCN1c1cc(-c2ccnn2C)c2ccnc(-c3ccn[nH]3)c2n1 (configuration not stated) + NC1CC1c1ccc(-c2cccc(O)c2)cc1
81.8

Now examine the next entry.
viability, T/C reported for this molecule O=C(c1cc(Cc2n[nH]c(=O)c3ccccc23)ccc1F)N1CCN(C(=O)C2CC2)CC1 + NC1CCC(NC2CC2c2ccccc2)CC1 : 81.3

---

- Tested on: 233499-124-R-J3-PDC complex spheroid viability, % test/control
- procedure_summary: Anticancer human tumor 233499-124-R-J3-PDC cell line growth inhibition;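 note: spheroids exposed to agents for one week before readout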
- test_conditions: second compound 0.316 µM; first compound 0.0949 µM; stronger effect = lower value
value_kind: viability, T/C (%)
Answers are plain numbers, in %.

1) COc1cc(C2c3cc4c(cc3C(OC3OC5COC(C)OC5C(O)C3O)C3COC(=O)C23)OCO4)cc(OC)c1O (stereo unspecified) + NC1CCC(NC2CC2c2ccccc2)CC1
89

Provide reported viability, T/C for each item, in the same order as listed.
1. Nc1ccccc1NC(=O)c1ccc(CNC(=O)OCc2cccnc2)cc1 + NC1CC1c1ccc(-c2cccc(O)c2)cc1
2. O=C(C=Cc1cccc(S(=O)(=O)Nc2ccccc2)c1)NO + NC1CCC(NC2CC2c2ccccc2)CC1
3. CCc1c2c(nc3ccc(O)cc13)-c1cc3c(c(=O)n1C2)COC(=O)[C@]3(O)CC + NC1CCC(NC2CC2c2ccccc2)CC1
4. Nc1ccn(C2OC(CO)C(O)C2(F)F)c(=O)n1 (stereo unspecified) + NC1CC1c1ccc(-c2cccc(O)c2)cc1
5. Nc1ccn(C2OC(CO)C(O)C2(F)F)c(=O)n1 (stereo unspecified) + NC1CCC(NC2CC2c2ccccc2)CC1
6. NS(=O)(=O)OCC1CC(n2ccc3c(NC4CCc5ccccc54)ncnc32)CC1O (stereo unspecified) + NC1CC1c1ccc(-c2cccc(O)c2)cc1
7. Nc1ncn(C2CC(O)C(CO)S2)c(=O)n1 (stereo unspecified) + NC1CC1c1ccc(-c2cccc(O)c2)cc1
8. CCc1c2c(nc3ccc(O)cc13)-c1cc3c(c(=O)n1C2)COC(=O)[C@]3(O)CC + NC1CC1c1ccc(-c2cccc(O)c2)cc1

Reply text:
[93.1, 128, 28.6, 41, 37.9, 31.2, 51.2, 25.2]
